# test: self-splicing fitness, log relative to wild type (ln ratio); higher = more splicing; Tetrahymena group I intron in knt gene, E. coli kanamycin selection, DiMSum; sequences stand for … in CUCUCU…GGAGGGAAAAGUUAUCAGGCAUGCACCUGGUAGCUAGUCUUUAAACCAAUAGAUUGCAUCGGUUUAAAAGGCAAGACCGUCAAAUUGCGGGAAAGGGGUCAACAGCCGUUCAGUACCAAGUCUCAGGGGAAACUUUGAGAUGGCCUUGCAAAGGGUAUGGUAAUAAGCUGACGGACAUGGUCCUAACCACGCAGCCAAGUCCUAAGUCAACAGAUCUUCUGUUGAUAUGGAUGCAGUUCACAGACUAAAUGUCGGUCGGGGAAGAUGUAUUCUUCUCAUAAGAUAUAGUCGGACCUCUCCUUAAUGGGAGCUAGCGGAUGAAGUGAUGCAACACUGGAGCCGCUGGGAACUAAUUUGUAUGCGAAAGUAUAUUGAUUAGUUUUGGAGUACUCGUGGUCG;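 also: selection with 25 µg/mL kanamycin versus none on LB agar overnight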
# conditionSet: 30 °C

{"columns": ["residueString", "self-splicing fitness (ln)"],
 "data": [
  ["GUUGAGCAAUAUUACGUGUU", -3.15],
  ["GUAUAGCAAUAUUACGUAUG", -3.06],
  ["AGAAAGCAAUAUUACGUUCC", -2.59],
  ["UAGCAGCAAUAUUACGAGCG", 0.035],
  ["CAUGAGCAAUAUUACGUGUU", -3.85],
  ["ACCAAGCAAUAUUACGCACU", -0.396],
  ["GGAAAGCAAUAUUACGUUUA", -1.89],
  ["GGAGAGCAAUAUUACGGGUC", -1.54],
  ["UACAAGCAAUAUUACGCUCA", -0.545],
  ["CUUUAGCAAUAUUACGUGGU", -2.28],
  ["UCUCAGCAAUAUUACGACGA", -0.256],
  ["AGCUAGCAAUAUUACGCGAU", -3],
  ["GGCUAGCAAUAUUACGUAAC", -0.594],
  ["AUCUAGCAAUAUUACGAUUC", -2.85],
  ["UGCUAGCAAUAUUACGUGCG", -1.94],
  ["GUGAAGCAAUAUUACGGCCA", -0.0192],
  ["AAUUAGCAAUAUUACGUAAC", -1.98],
  ["UCAUAGCAAUAUUACGGUUA", -1.37],
  ["CAUGAGCAAUAUUACGCUGA", -3.24],
  ["GGGUAGCAAUAUUACGGUCG", -0.207],
  ["GGCCAGCAAUAUUACGUCGU", -1.18],
  ["UACAAGCAAUAUUACGACGC", -2.93],
  ["GUAAAGCAAUAUUACGUAUU", -1.87],
  ["AUCUAGCAAUAUUACGCCCG", -0.765],
  ["CCUAAGCAAUAUUACGAUGC", -3.49],
  ["GGCGAGCAAUAUUACGUCCG", -3.67],
  ["GGGGAGCAAUAUUACGCUUC", -3.28],
  ["CAAGAGCAAUAUUACGCUUC", -3.61],
  ["ACUUAGCAAUAUUACGACGC", -0.152],
  ["GCCCAGCAAUAUUACGAGUC", -0.477],
  ["UCGCAGCAAUAUUACGACUU", -1.84],
  ["GUCUAGCAAUAUUACGACUG", -2.39],
  ["AGACAGCAAUAUUACGAAUU", -2.74],
  ["CUGCAGCAAUAUUACGACGU", -2.98],
  ["CGGUAGCAAUAUUACGUGCC", -1.18],
  ["GCAAAGCAAUAUUACGUUUG", -4.2],
  ["AGUAAGCAAUAUUACGCCAA", -3.35],
  ["UCUCAGCAAUAUUACGUACC", -3.25],
  ["UUACAGCAAUAUUACGAUUG", -1.76],
  ["CCUGAGCAAUAUUACGCGCA", -2.95],
  ["AAGUAGCAAUAUUACGGCUC", -0.15],
  ["GGGAAGCAAUAUUACGGUUA", -1.27],
  ["CGACAGCAAUAUUACGUUCA", -0.308],
  ["GAUAAGCAAUAUUACGGUGU", -2.61],
  ["GUGAAGCAAUAUUACGCCUA", -0.415],
  ["GAUCAGCAAUAUUACGUACU", -0.188],
  ["GACAAGCAAUAUUACGUUAU", -3.17]
]}
